Target: Bem1-2, P29366
Sequence (P29366 139-227): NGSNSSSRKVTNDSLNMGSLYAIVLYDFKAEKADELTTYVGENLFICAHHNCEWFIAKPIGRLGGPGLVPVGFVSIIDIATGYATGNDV
Assay: SPOT array
Settings: median of control spots 4347
readout: SPOT intensity

binder: PKRRAPPPVPKKPSS
SPOT intensity: 389
--
binder: SRQAIPPPVPNRPGG
SPOT intensity: 3

[1] ALKQKKIPPPFKPHL
[2] TPRLSLPRLPNKHHW
Exercise: Select one. Lower SPOT intensity: 1 or 2 Please indicate the selected item by its label.
Solution: 1
